Target: T1, human SLC34A2 (human, UniProt O95436 1-690)
T1 construct: whole, on cells; also called human solute carrier 34 A2; NaPi2b
T1 sequence (looked up): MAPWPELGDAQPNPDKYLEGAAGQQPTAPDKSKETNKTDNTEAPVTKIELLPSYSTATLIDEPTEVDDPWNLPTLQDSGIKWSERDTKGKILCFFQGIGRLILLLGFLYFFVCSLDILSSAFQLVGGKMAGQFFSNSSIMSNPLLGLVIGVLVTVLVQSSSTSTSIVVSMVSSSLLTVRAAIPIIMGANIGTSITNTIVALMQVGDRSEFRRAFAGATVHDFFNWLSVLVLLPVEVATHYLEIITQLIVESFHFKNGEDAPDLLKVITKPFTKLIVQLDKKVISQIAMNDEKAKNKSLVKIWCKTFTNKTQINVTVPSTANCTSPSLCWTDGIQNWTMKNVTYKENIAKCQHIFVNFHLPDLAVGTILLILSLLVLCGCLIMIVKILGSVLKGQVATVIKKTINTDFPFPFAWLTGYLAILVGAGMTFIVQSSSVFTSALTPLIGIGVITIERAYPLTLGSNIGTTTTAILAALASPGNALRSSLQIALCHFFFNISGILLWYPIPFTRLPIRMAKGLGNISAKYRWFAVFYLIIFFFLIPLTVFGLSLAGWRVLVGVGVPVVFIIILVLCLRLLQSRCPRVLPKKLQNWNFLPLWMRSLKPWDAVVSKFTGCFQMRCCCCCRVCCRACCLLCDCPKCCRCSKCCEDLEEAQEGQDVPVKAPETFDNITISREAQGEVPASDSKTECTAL
Assay: FACS, OVCAR3 cells
readout.type: Top (MFI)

binder: 30H9B8F9.p1.z9 hIgG1 (antibody, V domains shown, humanized hIgG1) VH: QVQLVQSGAEVVKPGASVKVSCKTSGYTFTTNNMHWVRQAPGQGLEWIGAIYPGSGATAYNQKFKGRVTLTADKSTSTAYMELSSLRSEATAVYYCARGMYGHGAMDYWGQGTLVTVSS VL: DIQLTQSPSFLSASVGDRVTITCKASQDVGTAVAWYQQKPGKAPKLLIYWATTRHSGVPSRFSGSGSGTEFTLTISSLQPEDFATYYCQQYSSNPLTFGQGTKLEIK
recorded.value: 29400
